Reported IC50 by item:
Target: HLA-A*6802 (human)
Experiment: inhibition of 125I-labelled probe peptide binding to purified HLA, gel filtration

binder | IC50
SLQCVSLHLV (modifications not checked) [Peptide 1418.52 (HuK2.170.V10) …] | 205 nM
ITLSVGCTGAV (modifications not checked) [Peptide 1418.59 (HuK2.8.T2) …] | 121 nM
